All figures here come from ChEMBL document CHEMBL2062428.

inhibition: recorded values
Target: Prostaglandin G/H synthase 1 (Ovis aries) (UniProt P05979)
Sequence (whole entry): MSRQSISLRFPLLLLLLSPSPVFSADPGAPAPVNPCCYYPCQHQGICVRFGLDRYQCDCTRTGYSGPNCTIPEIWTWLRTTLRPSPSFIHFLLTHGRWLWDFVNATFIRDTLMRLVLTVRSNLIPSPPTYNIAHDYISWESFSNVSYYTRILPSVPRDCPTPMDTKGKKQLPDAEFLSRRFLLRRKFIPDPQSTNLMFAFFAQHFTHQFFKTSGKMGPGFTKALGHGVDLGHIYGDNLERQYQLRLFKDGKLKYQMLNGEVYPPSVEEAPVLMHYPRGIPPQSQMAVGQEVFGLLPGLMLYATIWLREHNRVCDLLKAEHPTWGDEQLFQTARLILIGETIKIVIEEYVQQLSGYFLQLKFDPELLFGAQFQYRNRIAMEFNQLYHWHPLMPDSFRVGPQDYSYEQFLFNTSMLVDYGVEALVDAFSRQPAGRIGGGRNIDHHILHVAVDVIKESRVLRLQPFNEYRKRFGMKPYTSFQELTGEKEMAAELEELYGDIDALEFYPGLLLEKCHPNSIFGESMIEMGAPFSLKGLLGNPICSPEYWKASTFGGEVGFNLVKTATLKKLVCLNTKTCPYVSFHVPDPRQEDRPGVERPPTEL
Assay: Inhibition of ovine COX-1 using [14C] arachidonic acid as substrate at 4 uM preincubated for 17 mins before substrate addition measured after 3 mins by thin-layer chromatographic analysis
Form entry: value (%) — number only.

Example entries begin here.
O=C(O)CC1=C/C(=C\c2ccccc2)c2ccc(F)cc21: 74
COc1ccc(S(=O)(=O)NC(=O)CC2=C/C(=C\c3ccc(SC)cc3)c3ccc(F)cc32)cc1: 58
O=C(O)CC1=C/C(=C\c2cccc3ccccc23)c2ccc(F)cc21: 53
O=C(O)CC1=C/C(=C\c2ccc3ccccc3c2)c2ccc(F)cc21: 75

For the next question, use this compound.
Please indicate recorded inhibition of `C#Cc1ccc(/C=C2\C=C(CC(=O)O)c3cc(F)ccc32)cc1` measured with Prostaglandin G/H synthase 1 (Ovis aries) (UniProt P05979).
62

* * *

Target: Prostaglandin G/H synthase 2 (Mus musculus) (UniProt Q05769)
Assay: Inhibition of mouse COX-2 using [14C] arachidonic acid as substrate at 4 uM preincubated for 17 mins before substrate addition measured after 3 mins by thin-layer chromatographic analysis
Recorded metric: inhibition (%)
Give just the numeric value; % need not be written.

CCOC(=O)C(C)C1=C/C(=C\c2ccc(-c3ccccc3)cc2)c2ccc(F)cc21 (stereo not given): 0
COc1ccc(/C=C2\C=C(CC(=O)O)c3cc(F)ccc32)cc1: 22
CSc1ccc(/C=C2\C=C(C(C)(C)C(=O)O)c3cc(F)ccc32)cc1: 16
O=C(O)CC1=C/C(=C\c2ccccc2)c2ccc(F)cc21: 34

Give inhibition for `O=C(O)CC1=C/C(=C\c2cccc(-c3ccc4c(c3)OCO4)n2)c2ccc(F)cc21`
43

* * *

Molecular target: Prostaglandin G/H synthase 1 (Ovis aries) (UniProt P05979)
Test: Inhibition of ovine COX-1 using [14C] arachidonic acid as substrate at 4 uM preincubated for 17 mins before substrate addition measured after 3 mins by thin-layer chromatographic analysis
Threshold rule: inhibition greater than or equal to 50% is label 1; below that, label 0.

CCOC(=O)C(C)(C)C1=C/C(=C\c2cn(C)c3ccccc23)c2ccc(F)cc21: label 0
CC(C)(C(=O)O)C1=C/C(=C\c2ccc(-c3ccccc3)cc2)c2ccc(F)cc21: label 1
O=C(O)CC1=C/C(=C\c2ccc(-c3ccccc3)cc2)c2ccc(F)cc21: label 1
O=C(O)CC1=C/C(=C\c2ccc(C(F)(F)F)cc2)c2ccc(F)cc21: label 1

Here is the next item to consider.
Given `O=C(O)CC1=C/C(=C\c2ccc(-c3ccc(F)cc3)cc2)c2ccc(F)cc21` , state whether its inhibition is at least 50%.
label 0

* * *

Target: Prostaglandin G/H synthase 2 (Mus musculus) (UniProt Q05769)
Sequence (whole entry): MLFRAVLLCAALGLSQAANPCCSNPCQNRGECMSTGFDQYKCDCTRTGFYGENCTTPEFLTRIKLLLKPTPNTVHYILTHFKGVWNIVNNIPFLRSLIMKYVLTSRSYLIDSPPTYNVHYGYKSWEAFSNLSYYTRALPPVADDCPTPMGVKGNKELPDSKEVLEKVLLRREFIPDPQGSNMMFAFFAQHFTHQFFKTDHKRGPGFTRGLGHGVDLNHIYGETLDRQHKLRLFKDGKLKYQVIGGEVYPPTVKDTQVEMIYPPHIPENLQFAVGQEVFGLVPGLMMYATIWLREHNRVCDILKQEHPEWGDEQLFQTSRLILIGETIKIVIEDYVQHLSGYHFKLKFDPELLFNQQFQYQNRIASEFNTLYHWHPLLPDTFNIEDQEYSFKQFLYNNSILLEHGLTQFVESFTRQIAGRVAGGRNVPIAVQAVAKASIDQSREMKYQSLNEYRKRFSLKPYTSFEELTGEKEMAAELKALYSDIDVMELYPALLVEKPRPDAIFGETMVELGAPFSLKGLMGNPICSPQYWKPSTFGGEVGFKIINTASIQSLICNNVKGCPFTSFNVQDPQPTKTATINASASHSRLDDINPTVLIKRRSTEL
Assay: Inhibition of mouse COX-2 using [14C] arachidonic acid as substrate at 4 uM preincubated for 17 mins before substrate addition measured after 3 mins by thin-layer chromatographic analysis
Recorded metric: inhibition

Use these answered entries as a reference point.
CSc1ccc(/C=C2\C=C(CC(=O)NS(C)(=O)=O)c3cc(F)ccc32)cc1: 7%
C#CCOc1ccc(/C=C2\C=C(CC(=O)O)c3cc(F)ccc32)cc1OCC: 20%
O=C(O)CC1=C/C(=C\c2ccc3cccnc3n2)c2ccc(F)cc21: 42%

Could you please provide reported inhibition for `Cc1ccc(/C=C2\C=C(CC(=O)O)c3cc(F)ccc32)cc1` ? Thanks!
13%

Recall and state the measured inhibition for `CCOC(=O)C(C)(C)C1=C/C(=C\c2ccc(-c3ccc(F)cc3)cc2)c2ccc(F)cc21` .
0%

# return recorded inhibition for entry `CSc1ccc(/C=C2\C=C(CC(=O)NS(=O)(=O)c3ccc4ccccc4c3)c3cc(F)ccc32)cc1`
26%

Tell me inhibition reported for `CCOC(=O)C(C)(C)C1=C/C(=C\c2cccc(-c3ccc(F)cc3)n2)c2ccc(F)cc21`
21%

Give a short answer stating reported inhibition for `O=C(O)CC1=C/C(=C\c2ccc(Br)cc2)c2ccc(F)cc21` .
34%

Input `O=C(O)CC1=C/C(=C\c2ccc(-c3ccc(F)nc3)cc2)c2ccc(F)cc21` , output reported inhibition.
10%

Look up inhibition of `CCOC(=O)C(C)(C)C1=C/C(=C\c2cccc(-c3ccccc3)c2)c2ccc(F)cc21` and report it.
4%

// Input: `O=C(O)CC1=C/C(=C\c2ccc(-c3ccccc3)nc2)c2ccc(F)cc21` . Output its inhibition only.
5%

Complete the entry with inhibition for `O=C(O)CC1=C/C(=C\c2ccc(C(F)(F)F)cc2)c2ccc(F)cc21`
60%

Give me measured inhibition, please, for this compound: `CSc1ccc(/C=C2\C=C(CC(=O)NS(=O)(=O)c3ccc(Br)cc3)c3cc(F)ccc32)cc1`
30%

For the compound `Cc1nc(-c2ccccc2)ncc1/C=C1\C=C(CC(=O)O)c2cc(F)ccc21` , report inhibition.
19%

In one line, give reported inhibition of the entry `COc1ccc(S(=O)(=O)NC(=O)CC2=C/C(=C\c3ccc(SC)cc3)c3ccc(F)cc32)cc1` .
8%

Provide measured inhibition value, entry: `CCOC(=O)C(C)(C)C1=C/C(=C\c2ccc3c(c2)Cc2ccccc2-3)c2ccc(F)cc21`
18%

For the compound `CS(=O)(=O)c1ccc(-c2cccc(/C=C3\C=C(CC(=O)O)c4cc(F)ccc43)n2)cc1` , give its measured inhibition value.
54%

Please list inhibition recorded for the compound `O=C(O)CC1=C/C(=C\c2ccc(-c3ccccc3)c(F)c2)c2ccc(F)cc21`
34%

Given the compound `CSc1ccc(-c2ccc(/C=C3\C=C(CC(=O)O)c4cc(F)ccc43)cc2)cc1` , write its reported inhibition.
18%

* * *

Target: Prostaglandin G/H synthase 2 (Mus musculus)
Assay: Inhibition of mouse COX-2 using [14C] arachidonic acid as substrate at 4 uM preincubated for 17 mins before substrate addition measured after 3 mins by thin-layer chromatographic analysis
Listed below: inhibition values for each entry.
Reply numerically in %, unit not repeated.

O=C(O)CC1=C/C(=C\c2ccc(S(=O)(=O)C(F)(F)F)cc2)c2ccc(F)cc21: 16
O=C(O)CC1=C/C(=C\c2ccc3nccnc3c2)c2ccc(F)cc21: 29
O=C(O)CC1=C/C(=C\c2ccc3c(c2)Cc2ccccc2-3)c2ccc(F)cc21: 26

--- query ---
Please supply the value of reported inhibition for the item `O=C(O)CC1=C/C(=C\c2cccc3cccnc23)c2ccc(F)cc21`
0

* * *

Biological target: Prostaglandin G/H synthase 2 (Mus musculus)
Sequence (whole entry): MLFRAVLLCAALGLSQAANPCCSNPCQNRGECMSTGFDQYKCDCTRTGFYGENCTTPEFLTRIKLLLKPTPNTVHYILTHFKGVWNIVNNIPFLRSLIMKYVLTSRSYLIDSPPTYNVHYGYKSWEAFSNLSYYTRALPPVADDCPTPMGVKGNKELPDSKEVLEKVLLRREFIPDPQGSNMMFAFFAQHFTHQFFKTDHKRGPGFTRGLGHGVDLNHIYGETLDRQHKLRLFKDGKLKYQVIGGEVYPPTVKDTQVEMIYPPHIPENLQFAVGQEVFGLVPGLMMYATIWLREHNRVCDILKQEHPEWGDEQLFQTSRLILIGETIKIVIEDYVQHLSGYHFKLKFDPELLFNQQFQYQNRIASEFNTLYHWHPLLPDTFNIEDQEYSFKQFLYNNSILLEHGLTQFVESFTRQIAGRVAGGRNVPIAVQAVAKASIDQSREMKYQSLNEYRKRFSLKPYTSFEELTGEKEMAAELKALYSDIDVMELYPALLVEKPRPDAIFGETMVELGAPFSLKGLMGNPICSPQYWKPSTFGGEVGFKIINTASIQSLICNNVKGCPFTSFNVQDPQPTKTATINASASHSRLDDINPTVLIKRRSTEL
Assay: Inhibition of mouse COX-2 using [14C] arachidonic acid as substrate at 4 uM preincubated for 17 mins before substrate addition measured after 3 mins by thin-layer chromatographic analysis
Overview of recorded inhibition for various compounds

Consider the reported inhibition for these compounds:
CCOC(=O)C(C)(C)C1=C/C(=C\c2cnc(-c3ccccc3)nc2C)c2ccc(F)cc21: 9%
CCOC(=O)C(C)(C)C1=C/C(=C\c2cc(-c3ccc(C)cc3)on2)c2ccc(F)cc21: 0%
CCOC(=O)C(C)(C)C1=C/C(=C\c2cn(C)c3ccccc23)c2ccc(F)cc21: 22%
O=C(O)CC1=C/C(=C\c2cccc(-c3ccc(F)cc3)n2)c2ccc(F)cc21: 81%

State measured inhibition of the compound `O=C(O)CC1=C/C(=C\c2ccc3cccnc3c2)c2ccc(F)cc21` with Prostaglandin G/H synthase 2 (Mus musculus).
16%

State the measured inhibition (Prostaglandin G/H synthase 2 (Mus musculus)) of `COc1ccc(-c2cccc(/C=C3\C=C(CC(=O)O)c4cc(F)ccc43)n2)cc1`
56%
